- assay_procedure: In vivo DCB toxicity (acute, subchronic, chronic)
- Set-up: species or system mice
- condition: both sexes, BALB/c, mouse, in vivo, po; acute, p.o. administration in mice; read-out: median lethal dose (LD50)
measured_quantity: LD50 at 24 h

// returns reported LD50 at 24 h for input O=C(/C=C/c1ccc2c(c1)O[B-]1(O2)Oc2ccc(/C=C/C(=O)O[C@@H]3C[C@](O)(C(=O)O)C[C@@H](O)[C@H]3O)cc2O1)O[C@H]1C[C@@](O)(C(=O)O)C[C@H](O)[C@@H]1O (stereo partly shown) [DCB, diester chlorogenoborate]
> 5000 mg/kg
